biological target: recombinant human KIF18A (Homo sapiens, UniProt Q8NI77); construct: purchased GenScript; experiment: Inhibition of KIF18A enzyme activity (ADP-Glo assay); assay type: biochemical; details: recombinant human KIF18A 100 nM, ATP 60 µM, tubulin, paclitaxel; read-out: IC50
Sequence (Q8NI77 whole entry): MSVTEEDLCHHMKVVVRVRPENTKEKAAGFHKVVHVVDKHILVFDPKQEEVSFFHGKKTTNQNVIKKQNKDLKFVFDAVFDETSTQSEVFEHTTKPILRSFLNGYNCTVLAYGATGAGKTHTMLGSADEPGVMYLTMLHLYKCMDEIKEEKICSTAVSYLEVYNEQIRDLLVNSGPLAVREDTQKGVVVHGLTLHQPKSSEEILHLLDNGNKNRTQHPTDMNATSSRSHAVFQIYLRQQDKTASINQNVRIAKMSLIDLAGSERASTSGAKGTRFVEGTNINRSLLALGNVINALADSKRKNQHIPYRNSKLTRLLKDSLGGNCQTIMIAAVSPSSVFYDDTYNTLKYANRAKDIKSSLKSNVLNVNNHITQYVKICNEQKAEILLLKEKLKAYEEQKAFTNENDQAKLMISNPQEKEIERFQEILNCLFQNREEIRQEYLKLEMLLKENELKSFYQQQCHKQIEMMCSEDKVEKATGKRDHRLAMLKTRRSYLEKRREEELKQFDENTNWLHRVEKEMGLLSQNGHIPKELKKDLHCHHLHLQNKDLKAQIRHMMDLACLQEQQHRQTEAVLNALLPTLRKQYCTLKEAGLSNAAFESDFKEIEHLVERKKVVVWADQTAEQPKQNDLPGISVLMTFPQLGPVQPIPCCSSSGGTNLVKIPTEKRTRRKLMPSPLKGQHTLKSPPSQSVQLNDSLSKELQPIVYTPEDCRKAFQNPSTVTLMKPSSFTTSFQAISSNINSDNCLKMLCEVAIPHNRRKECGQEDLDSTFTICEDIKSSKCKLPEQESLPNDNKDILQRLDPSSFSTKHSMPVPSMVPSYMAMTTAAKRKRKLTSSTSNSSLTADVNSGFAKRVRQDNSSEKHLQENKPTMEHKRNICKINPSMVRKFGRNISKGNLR
Sequence (P68363 whole entry partner): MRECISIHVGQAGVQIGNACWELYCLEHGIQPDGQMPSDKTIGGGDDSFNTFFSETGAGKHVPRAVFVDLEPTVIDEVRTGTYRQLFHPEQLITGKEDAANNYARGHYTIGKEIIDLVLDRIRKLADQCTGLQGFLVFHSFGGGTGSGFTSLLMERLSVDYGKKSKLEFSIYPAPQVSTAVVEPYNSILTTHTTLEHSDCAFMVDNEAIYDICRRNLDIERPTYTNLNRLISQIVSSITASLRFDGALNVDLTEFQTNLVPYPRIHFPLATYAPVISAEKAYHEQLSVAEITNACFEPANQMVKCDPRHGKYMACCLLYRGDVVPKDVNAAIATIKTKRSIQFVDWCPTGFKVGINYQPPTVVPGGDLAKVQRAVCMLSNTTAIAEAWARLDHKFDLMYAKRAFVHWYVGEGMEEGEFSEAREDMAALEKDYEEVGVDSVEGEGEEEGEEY
Sequence (Q9BVA1 whole entry partner): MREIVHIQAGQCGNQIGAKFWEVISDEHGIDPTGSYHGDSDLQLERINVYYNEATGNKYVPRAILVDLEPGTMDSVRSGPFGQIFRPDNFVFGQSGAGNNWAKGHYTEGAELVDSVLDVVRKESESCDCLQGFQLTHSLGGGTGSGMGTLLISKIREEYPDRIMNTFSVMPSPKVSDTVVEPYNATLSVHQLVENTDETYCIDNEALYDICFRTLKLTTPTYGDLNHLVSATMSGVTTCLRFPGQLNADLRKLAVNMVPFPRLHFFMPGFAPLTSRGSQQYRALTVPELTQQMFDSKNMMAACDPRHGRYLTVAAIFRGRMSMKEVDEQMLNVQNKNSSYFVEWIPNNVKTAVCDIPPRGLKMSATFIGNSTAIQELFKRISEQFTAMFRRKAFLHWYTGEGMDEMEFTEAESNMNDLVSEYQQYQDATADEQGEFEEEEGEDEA
pIC50: −log10 of the molar value.
experimental.readout: pIC50

> print(dat)
                                 cpd.smiles  readout.value
1  CCS(=O)(=O)Nc1ccc(C(=O)Nc2ccc(-c3ccnnc3)c(N3CC(F)(F)C3)c2)c(N2CCC3(CC2)CC3)c1           7.01
2  CCS(=O)(=O)Nc1ccc(C(=O)Nc2ccc(-c3ncn(C)n3)c(N3CCC(F)(F)CC3)c2)c(N2CCC3(CC2)CC3)c1           6.91
3  O=C(Nc1ccc(-c2cccnn2)c(N2CCC(F)(F)CC2)c1)c1ccc(NS(=O)(=O)C2CC2)cc1N1CCC2(CC1)CC2           7.16
4  CCS(=O)(=O)Nc1ccc(C(=O)Nc2ccc(-c3nnc[nH]3)c(N3CCC(F)(F)CC3)c2)c(N2CCC3(CC2)CC3)c1           7.40
5  CCS(=O)(=O)Nc1ccc(C(=O)Nc2ccc(-n3cncn3)c(N3CCC(F)(F)CC3)c2)c(N2CCC3(CC2)CC3)c1           7.23
6  CCS(=O)(=O)Nc1ccc(C(=O)Nc2ccc(-n3cnnn3)c(N3CCC(F)(F)CC3)c2)c(N2CCC3(CC2)CC3)c1           7.10
7  CCS(=O)(=O)Nc1ccc(C(=O)Nc2ccc(-c3ncccn3)c(N3CC(F)(F)C3)c2)c(N2CCC3(CC2)CC3)c1           6.83
8  CCS(=O)(=O)Nc1ccc(C(=O)Nc2ccc(-n3ccnc3)c(N3CCC(F)(F)CC3)c2)c(N2CCC3(CC2)CC3)c1           7.29

###

experiment: Pharmacokinetic testing in mice after intragastric administration; type: in vivo; settings: male, mouse; ICR mice, oral administration 10 mg/kg, plasma; read-out: Half-life period T1/2 (converted)
experimental.readout: half-life (h)

> print(dat)
                                   compound  experimental.readout  readout.value
1  CCS(=O)(=O)Nc1ccc(C(=O)Nc2ccc(-c3ncn(C)n3)c(OCC(F)(F)F)c2)c(N2CCC3(CC2)CC3)c1 [Example 47]             half-life           5.45
2  CCS(=O)(=O)Nc1ccc(C(=O)Nc2ccc(-c3ncccn3)c(OCC(F)(F)F)c2)c(N2CCC3(CC2)CC3)c1 [Example 53]             half-life           12.1
3  Cc1cc(NC(=O)c2ccc(NS(=O)(=O)CCO)cc2N2CCC3(CC2)CC3)nc(N2CCC(F)(F)CC2)n1 [AMG 650, reference compound]             half-life           9.64

###

experiment: Pharmacokinetic testing in mice after intragastric administration; format: in vivo; details: male, mouse; ICR mice, oral administration 10 mg/kg, plasma; read-out: Plasma concentration Cmax
In this section we review reported Cmax values for a set of compounds.
experimental.readout: Cmax (ng/mL)

> print(dat)
                                   compound  readout.value
1  CCS(=O)(=O)Nc1ccc(C(=O)Nc2ccc(-c3ncn(C)n3)c(OCC(F)(F)F)c2)c(N2CCC3(CC2)CC3)c1           3500
2  CCS(=O)(=O)Nc1ccc(C(=O)Nc2ccc(-c3ncccn3)c(OCC(F)(F)F)c2)c(N2CCC3(CC2)CC3)c1           5790
3  Cc1cc(NC(=O)c2ccc(NS(=O)(=O)CCO)cc2N2CCC3(CC2)CC3)nc(N2CCC(F)(F)CC2)n1 [AMG 650, reference compound]           3050
